Measured values drawn from patent EP0472573B1 for this set.

Test system: ALS enzyme extracted from Mutant 6 (heterozygous)
Assay Remarks: ALS enzyme assay, heterozygous Mutant 6
Format: biochemical, Zea mays
Conditions: fold increase in resistance vs wild type, heterozygous Mutant 6; 30 min
Procedure: Seeds of generation M₁BC₁ M₁BC₂ of the nine mutants were sprayed pre-emergence with the herbicide imazethapyr (PURSUIT) (Trade Mark) at a rate of 250 g/ha and grown in a growth chamber (16 hour day, 27°C; 8 hour night, 17°C). Plants were harvested after 11 days. […] One hundred microlitres of the enzyme extract was used for each assay. […] After centrifugation at 30,000g the optical density of the supernatant was read at 540nm. […]
Measurement Label: Fold Increase
Lab note: jot the number down without any unit.

Request: Can you share its Fold Increase? I mean this molecule: COc1nc(C)nc(NC(=O)NS(=O)(=O)c2ccccc2Cl)n1
Response: 4

Request: Next molecule: COc1cc(Cl)nc(NC(=O)NS(=O)(=O)c2ccccc2C(=O)O)n1
Response: 4

Request: Next molecule: CCc1cnc(C2=NC(=O)C(C)(C(C)C)N2)c(C(=O)O)c1 (stereo not drawn)
Response: 40
